All values here come from PubChem BioAssay (NCATS).

# Tested on: CRL-7250
# Assay Notes: Cytotoxic Profiling of Annotated Libraries Using Quantitative High-Throughput Screening (AID 1296008); note: nearly all actives have a fitted effect of over 60% in size
# Experimental Conditions: Five cell lines viability, CellTiter-Glo ATP luminescence, 48-72 h
Records with an inconclusive call do not appear. Calls of active or inactive are those of the source. Calls come from the whole dose curve; as a rule, active = well fitted inhibition curve with a large enough effect; inconclusive = small, poorly fitted or top-dose-only effect; inactive = flat fitted curve, though single readings scatter.
Respond only with the outcome that fits, drawn from active, inactive

For orientation, consider the following solved cases.
CC1=C[C@H]2O[C@@H]3C[C@H]4OC(=O)/C=C/C=C/C(=O)OCC/C(C)=C/C(=O)OC[C@@]2(CC1)[C@]4(C)[C@]31CO1 :: active
Cc1c(N[C@@H](c2nnc(-c3ccc(C#N)cc3)o2)[C@H](C)O)ccc(C#N)c1Cl :: inactive
CC(=O)O[C@H]1C[C@]2(O)[C@@H]3CC[C@@H]4C[C@@H](O)CC[C@]4(C)[C@H]3CC[C@]2(C)[C@H]1c1ccc(=O)oc1 :: active
CCc1nn(C)c(C(=O)NCc2ccc(Oc3ccc(C)cc3)cc2)c1Cl :: active
C=C1[C@@H](C)[C@H]2[C@H](Cc3ccccc3)NC(=O)[C@]23[C@H](OC(C)=O)/C=C/[C@](C)(O)C(=O)[C@@H](C)C/C=C/[C@H]3[C@@H]1O :: active

Exam item: What did this assay record as the result for C[C@]12CC[C@H](O[C@@H]3O[C@H](CO)[C@@H](O)[C@H](O)[C@H]3O[C@@H]3O[C@H](CO)[C@@H](O)[C@H](O)[C@H]3O)CC1=CC[C@@H]1[C@@H]2CC[C@]2(C)[C@@H](C3=CC(=O)OC3)CC[C@]12O ?
Marked response: active

Exam item: What did this assay record as the result for C[C@@H]1CN(Cc2ccc(F)cc2)CCN1C(=O)COc1ccc(Cl)cc1NC(N)=O ?
Marked response: active

Exam item: What did this assay record as the result for COc1cc2c(c(OC)c1OC)-c1ccc(SC)c(=O)cc1[C@@H](NC(C)=O)CC2 ?
Marked response: active

Exam item: What did this assay record as the result for C=C1[C@@H](C)[C@H]2[C@H](Cc3ccccc3)NC(=O)[C@]23OC(=O)/C=C/C(=O)CCC[C@@H](C)C/C=C/[C@H]3[C@@H]1O ?
Marked response: active

Exam item: What did this assay record as the result for C[C@H]1O[C@@H](O[C@H]2CC[C@]3(C=O)C4CC[C@]5(C)[C@@H](C6=CC(=O)OC6)CC[C@]5(O)[C@@H]4CC[C@]3(O)C2)C[C@@H](O)[C@@H]1O (stereo not given in full) ?
Marked response: active

Exam item: What did this assay record as the result for CC(=O)OC[C@]12C[C@H](O)C(C)=C[C@H]1O[C@@H]1[C@H](O)[C@@H](OC(C)=O)[C@@]2(C)[C@]12CO2 ?
Marked response: active

Exam item: What did this assay record as the result for CN1C(=O)[C@@H](Cc2c[nH]c3ccccc23)N=C(c2ccccc2F)c2ccccc21 ?
Marked response: inactive

Exam item: What did this assay record as the result for C[C@@H]1O[C@@H](OC2CCC3(C=O)C(CCC4C3CCC3(C)C(C5=CC(=O)OC5)C(O)CC43O)C2)[C@H](O)[C@H](O)[C@H]1O[C@@H]1O[C@H](CO)[C@@H](O)[C@H](O)[C@H]1O (stereo not given in full) ?
Marked response: active

Exam item: What did this assay record as the result for CC1=CC(=O)[C@@H](O)[C@]2(C)C3[C@@H](O)[C@@H]4OC(=O)[C@@H]([C@H]4C)[C@]3(C)C(=O)C[C@@H]12 (stereo not given in full) ?
Marked response: active

###

# System: CP217
# Assay Notes: qHTS profiling for inhibitors of Plasmodium falciparum proliferation (AID 504749); note: nearly all actives have a fitted effect of over 60% in size
# Experimental Conditions: P. falciparum in erythrocytes, SYBR Green DNA, 72 h; series mostly up to 28.7 µM
Inconclusive results are not listed. The source made the active and inactive calls. Calls follow the shape of the dose curve; as a rule, active = well fitted inhibition curve with a large enough effect; inconclusive = small, poorly fitted or top-dose-only effect; inactive = flat fitted curve, though single readings scatter.
Respond only with the outcome that fits, drawn from active, inactive

For orientation, consider the following solved cases.
CO[C@H]1[C@@H](O)CC(OC2[C@@H](O)CC(OC3[C@@H](O)C[C@H](OC4CC[C@@]5(C)C(CCC6C5CC(O)[C@]5(C)[C@H](C7=CC(=O)OC7)CCC65O)C4)O[C@@H]3C)O[C@@H]2C)O[C@@H]1C (stereo not given in full) :: inactive
CC(C)[C@@]1(NC(=O)[C@H]2CC3c4cccc5[nH]cc(c45)C[C@H]3N(C)C2)O[C@@]2(O)C3CCCN3C(=O)[C@@H](Cc3ccccc3)N2C1=O (stereo not given in full) :: active
CCN1C[C@]2(COC)[C@H](O)C[C@H](OC)[C@]34C1C([C@H](OC)[C@H]23)[C@]1(OC(C)=O)C2[C@@H](OC(=O)c3ccccc3)C(O)(C[C@H]24)[C@@H](OC)[C@@H]1O :: inactive

Exam item: What did this assay record as the result for Oc1cc[c]([Hg][Cl])cc1 ?
Marked response: active

Exam item: What did this assay record as the result for C[N+](C)(C)CC(=O)[O-] ?
Marked response: inactive

###

# Assay Notes: qHTS for Inhibitors of the Functional Ribonucleoprotein Complex (vRNP) of Lassa (LASV) Arenavirus: Viability assay - alamar blue signal for LASV Primary Screen (AID 1347083); note: nearly all actives have a fitted effect of over 80% in size
# Experimental Conditions: cell viability, alamar blue fluorescence (LASV minigenome counter-screen); series mostly up to 57.5 µM
Results filed as inconclusive are left out. The source made the active and inactive calls. The call rests on the fitted dose curve; tested in HEK293 reporter line.
Respond only with the outcome that fits, drawn from class 1 for active, class 0 for inactive

For orientation, consider the following solved cases.
O=C(/C=C/C=C/c1ccc2c(c1)OCO2)N1CCCCC1 :: class 0
C[N+](C)(C)C[C@H](O)CC(=O)[O-] :: class 0
O=C(Nc1cccc(Nc2ncc(Br)c(NCCc3cnc[nH]3)n2)c1)N1CCCC1 :: class 1
CC(C)=CCC/C(C)=C/COC=O :: class 0

Now take the following compound into account.
Exam item: What did this assay record as the result for C=CCNc1c(O)cc2c(O)c1C[C@@H](C)C[C@H](OC)[C@@H](O)[C@@H](C)C=C(C)[C@H](OC(N)=O)[C@@H](OC)C=CC=C(C)C(=O)N2 ?
Marked response: class 1

###

# Tested on: SKOV3
# Assay Notes: Primary qHTS to identify gynecologic anti-cancer compounds using libraries of approved drugs and bioactive compounds (AID 1345084); note: nearly all actives have a fitted effect of over 55% in size
# Experimental Conditions: Gynecologic cancer cell panel viability, ATPlite luminescence, 48 h; series mostly up to 57.5 µM
Results filed as inconclusive are left out. Active and inactive are the calls of the source. Calls come from the whole dose curve; as a rule, active = well fitted cell-killing curve with a large enough effect; inconclusive = small, poorly fitted or top-dose-only effect, or effect the other way; inactive = flat fitted curve, though single readings scatter.
Respond only with the outcome that fits, drawn from active, inactive

COc1cc2c(cc1O)C1(C)CCC(O)C(C)(C)C1CC2=O (stereo unspecified) :: inactive

Exam item: What did this assay record as the result for C[C@]12CC[C@H](O)C[C@@H]1CC[C@@H]1[C@@H]2CC[C@]2(C)C(=O)CC[C@@H]12 ?
Marked response: inactive

Exam item: What did this assay record as the result for Oc1ccc2c3c1O[C@H]1c4[nH]c5c(N=C=S)cccc5c4C[C@@]4(O)[C@@H](C2)N(CC2CC2)CC[C@]314 ?
Marked response: inactive

Exam item: What did this assay record as the result for CC[C@H]1C[C@@H]2CC[C@@H](O2)[C@@H](C)C(=O)O[C@H](CC)C[C@H]2CC[C@H](O2)[C@H](C)C(=O)O[C@@H](C)C[C@@H]2CC[C@@H](O2)[C@@H](C)C(=O)O[C@H](CC)C[C@H]2CC[C@H](O2)[C@H](C)C(=O)O1 ?
Marked response: active

###

# Assay Notes: qHTS for Inhibitors of the Functional Ribonucleoprotein Complex (vRNP) of Lassa (LASV) Arenavirus: LASV Primary Screen - GLuc reporter signal (AID 1347082); note: nearly all actives have a fitted effect of over 60% in size
# Experimental Conditions: LASV minigenome vRNP, Gaussia luciferase reporter; series mostly up to 57.5 µM
Records with an inconclusive call do not appear. Activity calls are given as the source filed them. The call rests on the fitted dose curve; tested in HEK293 reporter line.
Respond only with the outcome that fits, drawn from TRUE = active, FALSE = inactive

For orientation, consider the following solved cases.
C[C@@H](NCCc1ccc(O)cc1)[C@@H](O)c1ccc(O)cc1 :: FALSE
CC(N)(Cc1ccc(O)c(O)c1)C(=O)O (stereo not drawn) :: FALSE
CN(C)C(=O)/N=N/C(=O)N(C)C :: FALSE
CC(N)(C(=O)O)c1ccc(C(=O)O)cc1 (stereo not drawn) :: FALSE

Exam item: What did this assay record as the result for O=C(O)c1cc(=O)c2ccccc2[nH]1 ?
Marked response: FALSE

Exam item: What did this assay record as the result for c1ccc2cnccc2c1 ?
Marked response: FALSE

Exam item: What did this assay record as the result for C[C@@H](NCc1cc2ccccc2[nH]1)c1cccc2ccccc12 ?
Marked response: FALSE

Exam item: What did this assay record as the result for O=c1ccn([C@@H]2O[C@H](COP(=O)(O)OP(=O)(O)O)[C@@H](O)[C@H]2O)c(=O)[nH]1 ?
Marked response: FALSE

Exam item: What did this assay record as the result for C=C1C(=O)OC2C=C(CO)CCC=C(CO)CC(OC(=O)C(C)C)C12 (stereo not drawn) ?
Marked response: FALSE

Exam item: What did this assay record as the result for CC1(C)CCC[C@]2(C)[C@H]3CC(=O)O[C@]3(C)CC[C@@H]12 ?
Marked response: FALSE

Exam item: What did this assay record as the result for C[C@@H](O)[C@H]1O[C@]2(C)CCC[C@H]1O2 ?
Marked response: FALSE

Exam item: What did this assay record as the result for COc1ccc(-c2coc3cc(OC)cc(O)c3c2=O)cc1 ?
Marked response: FALSE

Exam item: What did this assay record as the result for CCCCCCCCCO ?
Marked response: FALSE

Exam item: What did this assay record as the result for COc1cc(CNC(=O)CCCCC=CC(C)C)ccc1O ?
Marked response: FALSE

Exam item: What did this assay record as the result for CC(=O)C(C)=O ?
Marked response: FALSE

Exam item: What did this assay record as the result for COc1cc2c(c(OC)c1OC)-c1c(cc3c(c1OC)OCO3)CC(C)C(C)(O)C2OC(=O)c1ccccc1 (stereo not drawn) ?
Marked response: FALSE
